Experiment: chemical genetic growth profiling, strain panel (AID 1159580);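 note: tested at 20 µM; growth read once vehicle control cultures reached saturation at 30 °C; 1 = growth at the plate median or of vehicle wells; lower values mean less growth of the strain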
Conditions: S. cerevisiae deletion strains, growth OD, locus YHR094C, strain hxt1
Out of some 5,500 compounds screened, about 2,000 (36%) were called active. About 18% were inconclusive and are not listed. Cut-off read from the data, not from the text of the source: active = normalized growth mostly below about 0.91 (no sharp cut-off); inconclusive = no clear call, values can overlap the other calls; inactive = mostly above about 0.92. Some of the results follow.
Would you mind answering with one of these outcomes? 1 = active, 0 = inactive

## Input Record lookup: outcome of this test for CC(N)Cc1ccc(O)cc1 (stereo unspecified) ?
## Output 0

## Input Field entry: NCCc1cccc(O)c1
## Output 0

## Input Field entry: NCCc1ccc(O)cc1
## Output 0

## Input Field entry: COc1cc([C@@H]2c3cc4c(cc3C(O[C@@H]3O[C@@H]5CO[C@@H](c6cccs6)OC5[C@H](O)[C@H]3O)C3COC(=O)[C@@H]32)OCO4)cc(OC)c1O (stereo partly specified)
## Output 0

## Input Field entry: CCN(CCCCOC(=O)c1ccc(OC)c(OC)c1)C(C)Cc1ccc(OC)cc1 (stereo unspecified)
## Output 0

## Input Field entry: C=C1C2CC[C@@]3(C)[C@H](c4ccoc4)OC(=O)C[C@]13O[C@H]1CC(=O)C(C)(C)[C@H](C(O)C(=O)OC)[C@@]21C (stereo partly specified)
## Output 0

## Input Field entry: CC1(C)O[C@@H]2CC3C4CCC5=CC(=O)C=C[C@]5(C)[C@@]4(F)[C@@H](O)C[C@]3(C)[C@]2(C(=O)CO)O1 (stereo partly specified)
## Output 0

## Input Field entry: CC(=O)O[C@H]1C[C@@H](O)C(C)(C)C2C[C@@H](OC(C)=O)[C@]3(C)C(CC[C@@]4(C)[C@H](c5ccoc5)OC(=O)C5OC543)[C@]21C (stereo partly specified)
## Output 0

## Input Field entry: COc1ccc(-c2coc3cc(O)cc(O)c3c2=O)cc1
## Output 1

## Input Field entry: C[C@@H]1CC[C@@]2(OC1)OC1C(O)C3C4CC[C@H]5C[C@H](O[C@@H]6O[C@H](CO)[C@H](O[C@@H]7O[C@H](CO)[C@@H](O)[C@H](O[C@@H]8OC[C@@H](O)[C@H](O)[C@H]8O)[C@H]7O[C@@H]7O[C@H](CO)[C@H](O)[C@H](O[C@@H]8O[C@H](CO)[C@@H](O)[C@H](O)[C@H]8O)[C@H]7O)[C@H](O)[C@H]6O)[C@H](O)C[C@]5(C)C4CC[C@]3(C)C1[C@@H]2C (stereo partly specified)
## Output 1

## Input Field entry: NC(=O)CC[C@@H](N)C(=O)O
## Output 0

## Input Field entry: CC(=O)O[C@@H]1CC2C(C)(C)CCC(=O)[C@]2(C)C2CC[C@@]3(C)[C@H](c4ccoc4)OC(=O)C4OC43[C@@]21C (stereo partly specified)
## Output 0

## Input Field entry: COc1ccc(-c2cc(=O)c3ccccc3o2)cc1OC
## Output 0

## Input Field entry: CC(=O)O[C@@H]1CC2C(C)(C)C(=O)CC[C@]2(C)C2CC[C@@]3(C)[C@H](c4ccoc4)OC(=O)C4OC43[C@@]21C (stereo partly specified)
## Output 0

## Input Field entry: O=C(/C=C/c1ccccc1)c1ccc(O)cc1
## Output 0

## Input Field entry: O=c1c2ccccc2[se]n1-c1ccccc1
## Output 1

## Input Field entry: CC1(C)O[C@@H]2CC3C4C[C@H](F)C5=CC(=O)C=CC5(C)C4C(O)CC3(C)[C@]2(C(=O)CO)O1 (stereo partly specified)
## Output 0

## Input Field entry: COCCOC(=O)C1=C(C)NC(C)=C(C(=O)OC(C)C)C1c1cccc([N+](=O)[O-])c1 (stereo unspecified)
## Output 0

## Input Field entry: NCCc1ccc(O)c(O)c1
## Output 0

## Input Field entry: Nc1ccc(C(=O)Oc2ccccc2)c(O)c1
## Output 0

## Input Field entry: COc1ccc(-c2cc(=O)c3c(OC)cccc3o2)cc1
## Output 0

## Input Field entry: NS(=O)(=O)c1cc2c(cc1C(F)(F)F)NCNS2(=O)=O
## Output 0

## Input Field entry: CC1=CCc2c(cc3oc(C)cc(=O)c3c2O)OC1
## Output 0

## Input Field entry: COc1ccc(-c2cc(=O)c3ccccc3o2)cc1
## Output 0

## Input Field entry: CCCCCCCCCc1ccc(O)cc1
## Output 1

## Input Field entry: CCCCC1C(=O)N(c2ccccc2)N(c2ccccc2)C1=O
## Output 0

## Input Field entry: CC(=O)Oc1cc(-c2coc3cc(OC(C)=O)c(OC(C)=O)c(OC(C)=O)c3c2=O)cc(OC(C)=O)c1OC(C)=O
## Output 0

## Input Field entry: COC(=O)C1=C(C)NC(C)=C(C(=O)OCCN(C)Cc2ccccc2)C1c1cccc([N+](=O)[O-])c1 (stereo unspecified)
## Output 0

## Input Field entry: CC(=O)Oc1c(-c2ccccc2)oc2c(CC=C(C)C)c3c(c(OC(C)=O)c2c1=O)C=CC(C)(C)O3
## Output 1

## Input Field entry: Nc1ccc(C(=O)O)c(O)c1 (tested in a mixture with another compound)
## Output 0

## Input Field entry: Nc1ccc(C(=O)O)c(O)c1
## Output 0

## Input Field entry: O=C(O)/C=C(\CC(=O)O)C(=O)O
## Output 0

## Input Field entry: CC(=O)O[C@H]1C[C@H](O[C@H]2[C@@H](O)C[C@H](O[C@H]3[C@@H](O)C[C@H](O[C@H]4CC[C@@]5(C)C(CCC6C5C[C@@H](O)[C@]5(C)[C@@H](C7=CC(=O)OC7)CC[C@]65O)C4)O[C@@H]3C)O[C@@H]2C)O[C@H](C)[C@H]1O[C@@H]1O[C@H](CO)[C@@H](O)[C@H](O)[C@H]1O (stereo partly specified)
## Output 0

## Input Field entry: COc1ccc(-c2cc(=O)c3c(OC(C)=O)cc(OC(C)=O)cc3o2)cc1
## Output 0

## Input Field entry: C=C1C(N)CC2CC1C2(C)C (stereo unspecified)
## Output 0

## Input Field entry: CCCN1C[C@H](CSC)C[C@@H]2c3cccc4[nH]cc(c34)C[C@H]21
## Output 0
